- MEASURED TARGET: T1, human recombinant HLA-B*08:01 (human)
- T1 construct: Expressed in E. coli and purified; Assay done by ImmunAware
- PROTOCOL: pMHC dissociation at 37 C (b2m on heavy chain); mean half-life grade (+ >2 h, ++ >4 h, +++ >6 h, ++++ >10 h)
Please go through the items and note down their mean half-life (T1/2) of peptide-MHC complex.

Below, each entry is followed by its recorded mean half-life (T1/2) of peptide-MHC complex result.
HAKEKLTAL | 6 to 10 h
YVKERSKAM | 6 to 10 h
EAKRHLLQV | 4 to 6 h
EPVKKSRL | 6 to 10 h
YKKLRTSSF | 4 to 6 h

# evaluate next
Look at this binder and give its reported mean half-life (T1/2) of peptide-MHC complex. LPMLKVLNL
2 to 4 h
